Square brackets hold non-standard residues; d marks the D form. Peptide text beside a SMILES is read from it. * marks the point of attachment. Gly(1-amidinopiperidin-4-yl) = N=C(N)N1CCC([C@H](N)C(=O)O)CC1; Tic = O=C(O)[C@@H]1Cc2ccccc2CN1; Cha = N[C@@H](CC1CCCCC1)C(=O)O; NMe(benzyl) = CN(Cc1ccccc1)*; Nle = CCCC[C@H](N)C(=O)O; X5 = OCCN(Cc1ccccc1)*
Record form. Attribute: Stability (Arbitrary units) Cath D 4 h. Fill in for each entry.
Your answer should be a plain number; it is taken to be in Arbitrary units.

Input line: Please report Stability (Arbitrary units) Cath D 4 h with Cathepsin D (EC 3.4.23.5 from bovine spleen) (Bos taurus, UniProt P80209) for item CCCC[C@H](NC(=O)[C@@H]1Cc2ccccc2CN1C(=O)[C@@H](NC(=O)[C@H](CC1CCCCC1)NC(C)=O)C1CCN(C(=N)N)CC1)C(=O)N(C)Cc1ccccc1 [Compound P74, Ac-Cha-Gpg-Tic-Nle-N(Me)Bn] (Ac-[Cha][Gly(1-amidinopiperidin-4-yl)][Tic][Nle]-{NMe(benzyl)}) .
Sequence (P80209 45-390): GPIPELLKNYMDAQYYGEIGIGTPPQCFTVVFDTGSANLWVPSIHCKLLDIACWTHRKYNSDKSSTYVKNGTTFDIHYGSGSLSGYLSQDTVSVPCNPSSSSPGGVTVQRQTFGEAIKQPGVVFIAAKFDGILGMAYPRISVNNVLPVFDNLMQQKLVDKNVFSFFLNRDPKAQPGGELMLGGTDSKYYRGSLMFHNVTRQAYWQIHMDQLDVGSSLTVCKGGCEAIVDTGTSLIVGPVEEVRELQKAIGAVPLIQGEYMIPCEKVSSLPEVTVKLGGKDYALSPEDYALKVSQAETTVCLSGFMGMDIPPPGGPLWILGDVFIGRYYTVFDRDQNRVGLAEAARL
Output line: 104

Input line: Please report Stability (Arbitrary units) Cath D 4 h with Cathepsin D (EC 3.4.23.5 from bovine spleen) (Bos taurus, UniProt P80209) for item CCCC[C@H](NC(=O)C1c2ccccc2CN1C(=O)[C@@H](NC(=O)[C@H](CC1CCCCC1)NC(C)=O)C1CCN(C(=N)N)CC1)C(=O)N(C)Cc1ccccc1 (single isomer, unassigned) [Compound P76-1, Ac-Cha-Gpg-Disc-Nle-N(Me)Bn] .
Output line: 104

Input line: Please report Stability (Arbitrary units) Cath D 4 h with Cathepsin D (EC 3.4.23.5 from bovine spleen) (Bos taurus, UniProt P80209) for item CCCC[C@H](NC(=O)[C@@H]1Cc2ccccc2CN1C(=O)[C@@H](NC(=O)[C@H](CC1CCCCC1)NC(C)=O)C1CCN(C(=N)N)CC1)C(=O)N(CCO)Cc1ccccc1 [Compound P78, Ac-Cha-Gpg-Tic-Nle-N(Bn)CH2CH2OH] (Ac-[Cha][Gly(1-amidinopiperidin-4-yl)][Tic][Nle]-X5) .
Output line: 108

Input line: Please report Stability (Arbitrary units) Cath D 4 h with Cathepsin D (EC 3.4.23.5 from bovine spleen) (Bos taurus, UniProt P80209) for item CSCC[C@H](NC(=O)[C@@H]1Cc2ccccc2CN1C(=O)[C@H](CCCNC(=N)N)NC(=O)[C@H](CC1CCCCC1)NC(C)=O)C(N)=O [Compound P1, Ac-Cha-Arg-Tic-Met-NH2] (Ac-[Cha]R[Tic]M-NH2) .
Output line: 102

Source: patent US7629318B2
